Measured EC50, listed per entry for reference.
TESTED ON: human kappa opioid receptor (hKOR) (Homo sapiens)
Construct: expressed in transfected cells; host or cells: HEK-293 cells (ATCC), transient transfection with pcDNA3-hOPRK1
Sequence (P41145 whole entry): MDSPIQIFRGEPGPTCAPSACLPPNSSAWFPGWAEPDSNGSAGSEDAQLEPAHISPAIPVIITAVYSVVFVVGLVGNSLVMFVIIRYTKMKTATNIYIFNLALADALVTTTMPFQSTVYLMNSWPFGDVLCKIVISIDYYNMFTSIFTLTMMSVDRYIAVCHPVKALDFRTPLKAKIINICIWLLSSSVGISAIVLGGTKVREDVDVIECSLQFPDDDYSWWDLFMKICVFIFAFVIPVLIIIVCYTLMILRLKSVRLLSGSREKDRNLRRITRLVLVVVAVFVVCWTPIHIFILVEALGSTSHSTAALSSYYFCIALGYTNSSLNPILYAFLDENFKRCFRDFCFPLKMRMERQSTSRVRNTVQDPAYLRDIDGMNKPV
PROTOCOL: NFAT-luciferase reporter assay in HEK-293 cells transfected with human kappa opioid receptor and chimeric G-protein
Assay type: cell-based
COND: transfected HEK-293 cells, luciferase reporter; read-out: hKOR EC50
Square brackets hold non-standard residues; d marks the D form. Peptide text beside a SMILES is read from it. dOrn = NCCC[C@@H](N)C(=O)O; Inp = O=C(O)C1CCNCC1
The reply should contain only the number, in pM.

These solved cases illustrate the format of a correct answer.
| COMPOUND | EC50 / pM |
| --- | --- |
| CC(C)C[C@@H](NC(=O)[C@@H](Cc1ccccc1)NC(=O)[C@H](N)Cc1ccccc1)C(=O)N[C@H](CCCN)C(=O)N1CCC(N2CCC[C@H]2C(=O)O)CC1 [Compound 10] | 120 |
| CC(C)C[C@@H](NC(=O)[C@@H](Cc1ccccc1)NC(=O)[C@H](N)Cc1ccccc1)C(=O)N[C@H](CCCNC(C)C)C(=O)N1CCC(N)(C(=O)O)CC1 [Compound 20] | 150 |
| CC(C)C[C@@H](NC(=O)[C@@H](Cc1ccccc1)NC(=O)[C@H](N)Cc1ccccc1)C(=O)N[C@H](CCCN)C(=O)N1CCC(N2CCC[C@H]2C(N)=O)CC1 [Compound 14] | 210 |
| CC(C)C[C@@H](NC(=O)[C@@H](Cc1ccccc1)NC(=O)[C@H](N)Cc1ccccc1)C(=O)N[C@H](CCCN)C(=O)N1CCC(CC(N)C(=O)O)CC1 (some centres unmarked) [Compound 7] | 140 |
| CC(C)C[C@@H](NC(=O)[C@@H](Cc1ccccc1)NC(=O)[C@H](N)Cc1ccccc1)C(=O)N[C@H](CCCN)C(=O)N1CCCN(C2=NCCN2)CC1 [Compound 17] | 120 |

[ask] Which EC50 value is on record for CC(C)C[C@@H](NC(=O)[C@@H](Cc1ccccc1)NC(=O)[C@H](N)Cc1ccccc1)C(=O)N[C@H](CCCN)C(=O)N1CCC(C(=O)O)CC1 [Compound 9] (H-[dF][dF][dL][dOrn][Inp]-OH; N-terminus assumed) ?
[reply] 390

[ask] How about this compound: CC(C)C[C@@H](NC(=O)[C@@H](Cc1ccccc1)NC(=O)[C@H](N)Cc1ccccc1)C(=O)N[C@H](CCCN)C(=O)N1CCC(N)(C(=O)O)CC1 [Compound 6]
[reply] 170

[ask] How about this compound: CC(C)C[C@@H](NC(=O)[C@@H](Cc1ccccc1)NC(=O)[C@H](N)Cc1ccccc1)C(=O)N[C@H](CCCN)C(=O)N1CCCNCC1 [Compound 11]
[reply] 120

[ask] How about this compound: CC(C)C[C@@H](NC(=O)[C@@H](Cc1ccccc1)NC(=O)[C@H](N)Cc1ccccc1)C(=O)N[C@H](CCCN)C(=O)N1CCCN(C(=N)N)CC1 [Compound 16]
[reply] 120

[ask] How about this compound: CNC(=N)N1CCCN(C(=O)[C@@H](CCCN)NC(=O)[C@@H](CC(C)C)NC(=O)[C@@H](Cc2ccccc2)NC(=O)[C@H](N)Cc2ccccc2)CC1 [Compound 19]
[reply] 210

[ask] How about this compound: CC(C)C[C@@H](NC(=O)[C@@H](Cc1ccccc1)NC(=O)[C@H](N)Cc1ccccc1)C(=O)N[C@H](CCCN)C(=O)NCCCC[C@H](NC(=O)[C@H](N)CCCN)C(=O)N1CCNCC1 [Compound 44]
[reply] 250
